System: GST-tagged Cn
Assay: PEPperPRINT peptide microarray binding assay with GST-tagged Cn
Details: GST-tagged Cn, mean over the chip locations
Readout: Chip Fluorescence (mean)

Sequence	Experimental result
KKMSPPCISIDPAPNN [SeqRBMlowT_7656]	-1.098
LLLKIPSLNINDVEAS [SeqRBM_1919]	-1.379
HSKLIPKVSIQSPVHH [SeqRBMlowT_2323]	-0.9286
QGIYQDLGGINNFSIS [SeqCRZ1_Pseudogymnoascus_sp]	-1.098
LSDNRPNVRMEAPMVQ [SeqRBM_9917]	-0.3526
ASTSTFPQQQTAHKKQ [SeqBOI2_Podospora_anserina]	-1.452
RNPGTPLLELKGHAAS [SeqRBMlowT_8729]	-0.9089
HVSSSPDITLTPTQHR [SeqRBMlowT_782]	-0.7632
STSSLPTFSFSSPLPT [SeqRBMlowT_898]	-1.424
SQLAAPAINIDFAPTN [SeqRBMlowT_5061]	-0.8412
THTKISSFRGDAEPAP [Seqshuffled_9494]	-0.4714
TFWSNPQFKITLEDPD [SeqRBMlowT_3183]	-0.8373
HSKSIPKISIQSPVHH [SeqRBMlowT_863]	-0.8171
QGYKNPSAQFEPIGTK [SeqRBM_6874]	-1.163
RTNLNPFFFFTSDSKN [SeqRBM_2819]	-1.251
STSSLPTFSFSSPAPS [SeqRBMlowT_801]	-1.46
RNPGTALLTLRGHKKQ [SeqRBMlowT_5859]	-0.8616
ADEAAPEIVVSKPEHN [SeqRBMlowT_7698]	-1.148
LAFALPAFSFAAMKSA [SeqRBM_4599]	-2.0266
NSSGAPQFQINVLMGE [SeqRBM_9653]	-1.157
VSLKIPGSSAIDLTAS [SeqFLNA_Trichinella_nativa]	-0.9527
PPPGTPTRIGQHMAPS [SeqRBM_7926]	-1.127
GQSISRNIRPNTFSPL [Seqshuffled_9432]	-1.286
HSKSIPKFSFQSPVHH [SeqRBMlowT_1680]	-0.7142
STSSLPTFSFSSPPPT [SeqRBMlowT_3483]	-2.157
HVSSSPDIAITPTQHR [SeqRBMlowT_750]	-1.44
QSRSCSHPNRSPERVT [SeqRBM_5791]	-1.165
STSSLPTFSFSSPVPS [SeqRBMlowT_2358]	-3.06
NFNPNPAVVLKIPQQR [SeqRBM_5953]	-1.487
RNPGQALLQLSGHKAP [SeqRBM_8761]	-0.8885
RNPGQALLTLRGHKAQ [SeqRBMlowT_5824]	-1.225
STSSLPTFSFSSPPST [SeqRBMlowT_3479]	-1.867
KQMAPPAINIDFAPTN [SeqRBMlowT_1821]	-3.72
FSGNQPAIVVHTCEDP [SeqRBM_2445]	-0.8656
KSKLIPKLSFQSPVHH [SeqRBMlowT_3425]	-0.7902
EPEMSPSIFILKAHTT [SeqRBM_1051]	-1.058
GTMSPPDISITPPYAP [SeqRBM_3223]	-0.3136
KKMAPPCINIDPAPTS [SeqRBMlowT_307]	-1.259
DSLKIPQVRMRIDSAT [SeqRBM_3711]	-1.069
HVSSSPDITVTPTQHR [SeqRBMlowT_701]	-0.7766
ATSGTFPQTDGSHKKQ [SeqRBMlowT_7701]	-1.022
TFWTNPQYRIKVTDPD [SeqRBMlowT_12]	-1.188
ADEAGPEIVITPTELP [SeqRBMlowT_3142]	-1.962
TFNTNPQYTIQVVWPD [SeqRBM_7110]	-1.179
KKMAPPCINIDFAPTN [SeqRBMlowT_322]	-3.542
SHMAPPAINIDFAPSN [SeqCRZ1_Metarhizium_rileyi]	-0.9278
TFWTNPQFRVTVTEPD [SeqRBMlowT_4663]	-0.7824
RTYINPFVTFVDGGNK [SeqRBMlowT_3664]	-0.6971
VHQCTPEVSVSVCFTC [SeqRBM_8420]	-0.9088

---

Reported Chip Fluorescence (max) values for the following sequences.
System: GST-tagged Cn
Assay: PEPperPRINT peptide microarray binding assay with GST-tagged Cn
Details: GST-tagged Cn, max over the spots named in Location on chip
Readout: Chip Fluorescence (max)

Sequence	Experimental target	Experimental result
TFWTNPQYRITLDSSD [SeqRBMlowT_972]	GST-tagged Cn	1.828
GASMCPAMSWQDCGQR [SeqSFB3_Iconisemion_striatum]	GST-tagged Cn	1.507
KDMLIPRPSSQDSGAY [SeqRBM_5587]	GST-tagged Cn	1.626
RAYINPFMQFIDGGRR [SeqRBMlowT_1520]	GST-tagged Cn	1.802
FSMLIGMHEPHPNTTI [Seqrandom_9971]	GST-tagged Cn	1.524
PNLYENTLGIEQFTLS [SeqRBM_7749]	GST-tagged Cn	1.865
STSSLPTFSFSSPLPS [SeqRBMlowT_3929]	GST-tagged Cn	1.5
RAYINPFMQFQDGGQR [SeqRBMlowT_1515]	GST-tagged Cn	1.533
REPGVPPLELKGHLSL [SeqRBM_7171]	GST-tagged Cn	1.816
RQPGQALLTLRGHSAP [SeqRBMlowT_5806]	GST-tagged Cn	1.328
TFWMNPQYKIKLEEPD [SeqRBMlowT_4687]	GST-tagged Cn	1.8162
PDESTPEITITPAELP [SeqRBMlowT_5714]	GST-tagged Cn	1.719

---

System: GST-tagged Cn
Experiment: PEPperPRINT peptide microarray binding assay with GST-tagged Cn
Details: GST-tagged Cn, max over the spots on the chip (two locations)

Sequence	Chip Fluorescence (max)
TFWANPQFKIRLEEPD [SeqRBMlowT_2213]	1.142
RAYINPFMQFNDGGSR [SeqRBM_9542]	1.138
SDEAGVRIVITVTEAP [SeqRBMlowT_9535]	1.153
QFKKSNLLGFMAASGD [Seqshuffled_9600]	0.9897
GPPATPSIVVHPCCCD [SeqRBM_2098]	1.034
PDEAQPGIVVHVCELP [SeqRBMlowT_301]	1.28
RNPGIALLSLRGHKAQ [SeqRBMlowT_8792]	1.2142
PAFFCEGFTIQADSLD [Seqshuffled_9825]	1.294
LKDESPEVRLNIISKL [SeqRBMlowT_3831]	1.167
RSPGTFPLELSGHKKQ [SeqRBMlowT_6356]	1.326
RNPGTALLELRGHKAS [SeqRBMlowT_6384]	1.174
KSKLIPKLSIQSPVRH [SeqJHY_Macaca_mulatta]	1.129

---

Tested on: GST-tagged Cn
Assay: PEPperPRINT peptide microarray binding assay with GST-tagged Cn
Details: GST-tagged Cn, max over the spots named in Location on chip

Sequence	Experimental target	Chip Fluorescence (max)
RSYVNPAYSFTFDSKA [SeqSFB3_Lachancea_meyersii]	GST-tagged Cn	1.532
AINASPEIVVGYDELP [SeqRBM_6435]	GST-tagged Cn	1.452
RQPGTALLTLRGHKKQ [SeqRBMlowT_5805]	GST-tagged Cn	1.524
PSLYENALGMEAFTIS [SeqRBMlowT_4846]	GST-tagged Cn	1.442
STEIIATLFVQVANEY [Seqshuffled_9888]	GST-tagged Cn	1.433
VFWANPQFEVTLREDD [SeqRBM_5060]	GST-tagged Cn	1.773
TFHTNPQYRVNIEDQD [SeqRBM_8967]	GST-tagged Cn	1.436
STSGTFPQTESSHKKQ [SeqRBMlowT_5831]	GST-tagged Cn	1.58
RTPGTFPLTLKGHKKQ [SeqRBMlowT_6382]	GST-tagged Cn	1.729
GAPGTPSRWGTPLAPS [SeqRBM_851]	GST-tagged Cn	1.622
RTYINPFMKFTIWGTQ [SeqRBM_6386]	GST-tagged Cn	1.359
MLDAIPEVVVSPPEEP [SeqRBM_4087]	GST-tagged Cn	1.659
TFWDNPQYQIKLNDPD [SeqRBM_8698]	GST-tagged Cn	1.7877

---

System: GST-tagged Cn
Test: PEPperPRINT peptide microarray binding assay with GST-tagged Cn
Conditions: mean over the spots listed under Location on chip

Sequence	Chip Fluorescence (mean)
EDGKVPSIEIDVREYA [SeqRBM_7430]	0.8153
ASDDIPTVVIHPPEED [SeqSLC4A7_Pan_troglodytes]	-0.184
TFWTNPQFRITLEEVD [SeqRBMlowT_245]	0.8824
GYDIDPAISFDSDLML [Seqshuffled_9502]	2.023
VVMHKMPKTGGWWHCP [Seqrandom_9963]	1.008
VNLPIPAVQLADSGAY [SeqRBM_1417]	0.6718
TSPDQPCIDVHQSESE [SeqRBM_4309]	0.9383
PSDPQPSIIVHACLED [SeqRBM_9284]	0.8695
MAGPHPKIVITGPHEE [PKIVIT-containing synthetic peptide]	1.158
TFWTNPQFRITLEDPD [SeqRBMlowT_31]	1.658
STSSLPTFSFSPPQPT [SeqRBMlowT_3908]	0.3277
TFWTNPQFKLKLLDPD [SeqRBMlowT_4269]	0.8579
KAYMCPFMSFIDGGQR [SeqRBMlowT_3665]	0.3874
ADEAIPKIVIHPPEEP [SeqRBMlowT_1972]	-0.1428
TFWTNPQFKITLEEPD [SeqRBMlowT_951]	0.9758
TFWTNPQFRIHLEEED [SeqRBMlowT_251]	1.205
RTPGTFLLTLRGHKKQ [SeqRBMlowT_7783]	0.7866
KAYMSPFMSFIDGGRR [SeqRBMlowT_6614]	1.173
VFAQEDYFLFPVILKE [Seqrandom_9943]	-0.004599
KSKSIPKISIQSPVHH [SeqRBMlowT_1684]	0.2995
GSPPTPSRSGKPPKPL [SeqRBM_2495]	0.6955
TFWTNPQYRITVTDAD [SeqRBMlowT_620]	0.3496
KAYINPFMQFIDGGRR [SeqRBMlowT_549]	1.4015
LNRIEIFVTFNFTRNS [Seqshuffled_5110]	0.477
TFWMNPQFKINLEEED [SeqCAPN11_Salmo_salar]	0.4499
TFWTNPQFNVTLSEAD [SeqRBM_9395]	0.5231
KAYMCPFMQFIDGGRK [SeqRBMlowT_522]	1.3266
TFWTNPQFRITLDSPD [SeqRBMlowT_5998]	0.5672
PSDDQPGIIVHPAEED [SeqRBMlowT_1217]	-0.2496
GGLRSDSVTMIDQGAY [SeqRBM_2699]	1.043
RNPGTFPLELEGHKKQ [SeqRBMlowT_8768]	1.049
TFWTNPQFRLKIPQVD [SeqRBMlowT_93]	1.497
ERWSIGFGDMFCNQFK [Seqrandom_9989]	0.53
TFWSNPQYFVTLLESD [SeqRBM_6656]	1.049
ADEAVPEITITPAELP [SeqRBMlowT_1267]	0.3175
SDEAGPRIVITATELP [SeqRBMlowT_4492]	0.5943
NKLKIPHQLSQPINDH [SeqRBM_2163]	0.1403
PKMAPPAINIDFAPTN [SeqRBMlowT_1805]	-0.01431
TFWTNPQYRLKVTDPD [SeqRBMlowT_5581]	1.547
FETSHPTVQLKIPQLR [SeqLCORL_Pteropus_alecto]	-0.1576
RQPGQALLTLRGHSKS [SeqRBMlowT_7741]	0.6175
TFWTNPQFRIKLEDPD [SeqRBMlowT_91]	0.4239
DSSANPEITITPAELP [SeqRBMlowT_4460]	0.4288
GSETQPGIVVHVCEDD [SeqRBMlowT_1216]	0.9155
HSKSSPKLSISSPVHH [SeqRBMlowT_1628]	1.038
TFWTNPQFKVSLEEED [SeqRBMlowT_1125]	1.097
ASALSPRIEITPSHEL [SeqNFATC1_Alligator_mississippiensis]	0.192
DSLYQEVLGIGSFSLA [SeqCRZ1_Hypocrea_virens]	-0.1117
RNPESPSLFLEGHLSR [SeqRBMlowT_8778]	0.475
ADEAIPEITITPAELP [SeqRBMlowT_424]	0.8947
TFWTNPQFRITLEDVD [SeqRBMlowT_966]	0.108
